Value source: patent US20230104540A1

study.target: T1, CD58-Fc (UniProt P19256 29-215, limits assumed)
T1 construct: Control antigen
T1 sequence (looked up): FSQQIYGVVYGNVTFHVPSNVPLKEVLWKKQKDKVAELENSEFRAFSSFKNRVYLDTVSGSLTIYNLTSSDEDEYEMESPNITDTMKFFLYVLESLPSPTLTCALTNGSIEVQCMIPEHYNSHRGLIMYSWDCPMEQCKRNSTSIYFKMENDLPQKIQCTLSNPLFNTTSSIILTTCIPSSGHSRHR
assay.procedure: mono scFv-phage ELISA on coated antigen, single point (Example 2)
measure: binding result

Anti-FAM19A1 1A11 mono scFv-phage clone (scFv, V domains shown) VH: QVQLVESGAEVRKPGASVKVSCKASGYSFTGYDINWVRQAPGQGLEWMGWMNPSSGNTGYAQKFQGRVTMTRDSSISTAYMELSSLRSEDTAVYYCARALNSVYYYHALDVWGQGTTITVSS VL: SYELTQPPSASVSPGQTASITCSGDRLHNKYTSWYQQKPGQSPLLVIYQDAKRPSGIPERFSGSSSRGTATLTISGTQATDEADYYCQTWDRSTGVFGTGTKVTVL = no binding
Anti-FAM19A1 1C1 mono scFv-phage clone (scFv, V domains shown) VH: QVQLVESGGGVAQPGRSLRLSCAASGFAFSDYGIHWVRQAPGKGLEWVALISYDGSKRSYADSVKGRFAISRDNSKNTLYLQMNSLRAEDTAVYYCARPGDYALAFDLWGQGTMVTVSS VL: QTVVTQEPSFSVSPGETVTLTCGLSSGSVSTSHFPSWYRQTPGQAPRPLIDSRNARSIGVPDRFSGSIVGTKATLTISGAQAEDECNYYCALYMGRGNWVFGGGTKLTVL = no binding
Anti-FAM19A1 3A8 mono scFv-phage clone (scFv, V domains shown) VH: QVQLQQSGPGLVKPSETLSLICSVSGDAITSGSYYWGWIRQSPGRGLEWIGEISHSGSTDYNPSLKSRVTISVDKSRNQFSLRLNSVTAVDTAVYYCAGDTALVGAYSIWGQGTMVTVSS VL: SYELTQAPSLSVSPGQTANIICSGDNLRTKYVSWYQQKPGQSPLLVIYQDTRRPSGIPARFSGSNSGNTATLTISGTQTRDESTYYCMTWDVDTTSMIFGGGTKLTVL = no binding
